Test system: WPMY1-TUBA1B-RELA
Assay: phenotypically active (imaging signature differs from DMSO and reproducible) at any of 0.3-9 uM (binary (1 = active, 0 = inactive)); higher = active
Condition: treatment time: 24 h
Counter-ions that a name gives are not always drawn.
Measured endpoint: phenotypically active
Give bare numbers.

Example cases with answers are listed next.
C(=C/c1ccccc1)/CN1CCN(C(c2ccccc2)c2ccccc2)CC1 : 0
O=C1c2c(O)cccc2Cc2cccc(O)c21 : 1
CNC(=O)c1ccccc1Sc1ccc2c(/C=C/c3ccccn3)n[nH]c2c1 : 1
CCCCCCCCCCNCCSSCc1ccc(Cl)cc1 : 0
C[C@H](NC(=O)[C@@H](O)c1cc(F)cc(F)c1)C(=O)N[C@@H]1C(=O)N(C)c2ccccc2-c2ccccc21 : 0

Parameter requested: phenotypically active. Apply to each item below.
1. CC(C)(C(=O)c1cccnc1)c1cccnc1
2. CC1=Nc2ccc(Cl)cc2S(=O)(=O)N1 [diazoxide]
3. CC(C)NCC(O)c1ccc(O)c(O)c1 (stereo not given) [Isoproterenol hydrochloride]
4. COc1ccc([C@@H]2Sc3ccccc3N(CCN(C)C)C(=O)[C@@H]2OC(C)=O)cc1
5. O=c1[nH]cnc2c1ncn2[C@H]1CC[C@@H](CO)O1

0
0
0
0
0

---

Tested on: WPMY1-ACTB-RAB5A
Assay: phenotypically active (imaging signature differs from DMSO and reproducible) at any of 0.3-9 uM (binary (1 = active, 0 = inactive)); higher = active
Condition: treatment time: 24 h
Your answer must be one of the following: TRUE (active), FALSE (inactive)

Consider the worked cases shown below.
O=C1NN(c2ccc(F)c(Cl)c2)C(=O)/C1=C\c1ccc([N+](=O)[O-])o1 : FALSE
Oc1ccc(-c2nc(-c3ccc(F)cc3)c(-c3ccncc3)[nH]2)cc1 : TRUE

State the result this test recorded for COc1cc2c(cc1OCCCN1CCCC1)N=C(N)C21CCC1 .
FALSE

State the result this test recorded for O=C1NC(=O)[C@@H](c2cn3c4c(cccc24)CCC3)[C@@H]1c1c[nH]c2ccccc12 [tivantinib] .
TRUE

State the result this test recorded for Cc1noc(C)c1-c1ccc2c(c1)nc(CCc1ccc(OCCCN(C)C)cc1)n2CCN1CCOCC1 .
TRUE

---

Tested on: HepG2-CANX-COX4
Assay: phenotypically active (imaging signature differs from DMSO and reproducible) at any of 0.3-9 uM (binary (1 = active, 0 = inactive)); higher = active
Condition: treatment time: 24 h
Your answer must be one of the following: YES = active, NO = inactive

CC(C)n1nc(-c2cc3cc(O)ccc3[nH]2)c2c(N)ncnc21 : YES
COc1ccc(-c2cnc(-c3cccc4c3-c3ccccc3C4=O)o2)cc1 : NO
CN(C)CCCN1c2ccccc2Sc2ccc(C(F)(F)F)cc21 [triflupromazine] : NO
CC(=O)N[C@@H]1[C@@H](O[C@H](C)C(=O)O)[C@H](O)[C@@H](CO)O[C@@H]1O [Muramic acid, N-acetyl] : NO

# evaluate next
State the result this test recorded for CCn1c(=O)c2cc(C(N)=O)c(N)nc2n(C2CC2)c1=O .
NO

---

Tested on: HepG2-GM130-SQSTM1
Assay: lowest phenotypically active concentration; higher = less potent
Condition: treatment time: 24 h
I'd appreciate it if you could supply lowest phenotypically active concentration values for the items below.
Give bare numbers, in µM.

COc1cc(N2CCC(N)CC2)ccc1Nc1ncc(Cl)c(-c2c[nH]c3ccccc23)n1 : 3

Pending compound:
Hello, please tell me recorded lowest phenotypically active concentration for this one: NCC(=O)Nc1ccc(-n2nc(C(F)(F)F)cc2-c2ccc3c(ccc4ccccc43)c2)cc1
3
